# Method Description: Total and unbound drug concentrations in blood and liver of Z α1‐antitrypsin transgenic mice
# Type: in vivo
# Experimental Conditions: female, hemizygous Z α1-antitrypsin transgenic, mouse, liver, oral, 100 mg/kg three times a day, time 339 h; read-out: TOTAL mean concentration ± SD, Liver
Measurement Type: concentration at 339 h (µM)
Hi! Could you send only the number? It should be in µM, unit omitted.

[ask] Form field: reported concentration at 339 h of `CCC[C@@H](NC(=O)c1cccc2c1CC(=O)N2)[C@@H](O)c1cccc(F)c1C`
[reply] 84.6

----------
# Study System: Dopamine D1 (Homo sapiens)
# Sequence (P21728 whole entry): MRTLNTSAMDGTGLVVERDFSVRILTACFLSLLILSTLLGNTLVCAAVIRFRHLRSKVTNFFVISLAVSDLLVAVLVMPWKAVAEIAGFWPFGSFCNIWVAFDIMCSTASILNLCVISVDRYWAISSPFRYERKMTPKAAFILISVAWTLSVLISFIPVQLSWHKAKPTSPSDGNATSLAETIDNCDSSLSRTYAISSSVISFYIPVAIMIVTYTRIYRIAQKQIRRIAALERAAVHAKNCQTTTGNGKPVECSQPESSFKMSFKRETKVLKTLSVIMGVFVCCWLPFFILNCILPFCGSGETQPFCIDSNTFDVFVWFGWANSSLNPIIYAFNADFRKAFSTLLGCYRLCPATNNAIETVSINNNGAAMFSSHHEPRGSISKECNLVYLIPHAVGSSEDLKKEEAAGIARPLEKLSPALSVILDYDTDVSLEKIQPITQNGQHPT
# Method Description: Off‐target panel: Dopamine D1 (DRX)
# Assay type: cell-based
Measurement Type: IC50

[ask] Can you look up the measured IC50 of `CCC[C@@H](NC(=O)c1cccc2c1CC(=O)N2)[C@@H](O)c1cccc(F)c1C` for me?
[reply] > 100 µM

Origin of values: paper PMC7933930
